Data credit: ChEMBL document CHEMBL2401646

testedSystem: UniProtKB Q04912
Sequence (Q04912 25-304 limits assumed): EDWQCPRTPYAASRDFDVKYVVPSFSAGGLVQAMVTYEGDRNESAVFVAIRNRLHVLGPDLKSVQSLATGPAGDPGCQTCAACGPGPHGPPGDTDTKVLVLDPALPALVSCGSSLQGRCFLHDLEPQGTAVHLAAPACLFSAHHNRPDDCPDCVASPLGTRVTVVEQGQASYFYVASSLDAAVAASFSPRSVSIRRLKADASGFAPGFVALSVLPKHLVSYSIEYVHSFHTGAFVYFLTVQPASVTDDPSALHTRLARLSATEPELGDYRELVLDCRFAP
Sequence (Q04912 310-1400 limits assumed): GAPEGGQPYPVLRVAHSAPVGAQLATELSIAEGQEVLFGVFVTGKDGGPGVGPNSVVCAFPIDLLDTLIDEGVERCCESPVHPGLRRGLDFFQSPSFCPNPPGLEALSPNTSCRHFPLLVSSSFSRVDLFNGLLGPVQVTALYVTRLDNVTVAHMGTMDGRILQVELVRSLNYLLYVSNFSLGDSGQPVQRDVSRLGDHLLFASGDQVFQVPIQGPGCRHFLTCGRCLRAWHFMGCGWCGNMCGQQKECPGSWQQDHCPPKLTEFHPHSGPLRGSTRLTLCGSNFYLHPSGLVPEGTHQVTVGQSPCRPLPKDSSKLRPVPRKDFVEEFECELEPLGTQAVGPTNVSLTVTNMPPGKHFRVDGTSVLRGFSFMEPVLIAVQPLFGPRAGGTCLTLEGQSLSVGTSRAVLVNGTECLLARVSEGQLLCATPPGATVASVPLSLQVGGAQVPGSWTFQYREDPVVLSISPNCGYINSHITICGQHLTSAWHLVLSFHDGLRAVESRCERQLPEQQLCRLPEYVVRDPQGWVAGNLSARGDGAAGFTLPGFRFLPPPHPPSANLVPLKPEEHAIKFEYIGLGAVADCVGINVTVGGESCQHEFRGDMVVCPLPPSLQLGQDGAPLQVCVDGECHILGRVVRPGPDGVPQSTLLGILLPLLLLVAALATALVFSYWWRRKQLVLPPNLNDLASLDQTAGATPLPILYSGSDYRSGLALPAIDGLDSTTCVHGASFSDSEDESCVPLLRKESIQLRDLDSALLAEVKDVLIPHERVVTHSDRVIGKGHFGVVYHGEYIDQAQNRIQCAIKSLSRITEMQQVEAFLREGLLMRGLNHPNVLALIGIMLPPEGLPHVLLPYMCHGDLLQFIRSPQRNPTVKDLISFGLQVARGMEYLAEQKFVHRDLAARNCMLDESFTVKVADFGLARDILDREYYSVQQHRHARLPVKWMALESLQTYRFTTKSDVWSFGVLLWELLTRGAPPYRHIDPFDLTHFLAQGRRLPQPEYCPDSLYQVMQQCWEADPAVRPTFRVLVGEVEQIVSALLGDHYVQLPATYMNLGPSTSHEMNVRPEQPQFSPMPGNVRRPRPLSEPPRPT
testDescription: Inhibition of RON (unknown origin) autophosphorylation
measure: IC50

Entry C[C@@H](Oc1c(N)ncc2c(C3=CCN(C(N)=O)CC3)coc12)c1c(Cl)ccc(F)c1Cl , UniProtKB Q04912 data, IC50 value: 0.025 µM

* * *

Assign Vd to each entry below.
testDescription: Volume of distribution at steady state in CD1 mouse at 2 mg/kg, iv
Type: ADME, organism-based
Parameters: dose 2 mg/kg, route intravenous
testParameters: in vivo, read-out: Vdss
The reply should be a number in L/kg, with the unit left off.

The compound C[C@@H](Oc1c(N)ncc2c(C3=CCN(C(N)=O)CC3)coc12)c1c(Cl)ccc(F)c1Cl showed Vd equal to 3.8

The compound C[C@@H](Oc1c(N)ncc2c(-c3cnn(C4CCNCC4)c3)coc12)c1c(Cl)ccc(F)c1Cl showed Vd equal to 12

* * *

testDescription: Plasma concentration in human MKN45 cells xenografted in mouse at 100 mg/kg, po up to 8 hrs
Format: ADME, organism-based, MKN-45
Set-up: dose 100 mg/kg, route oral
measure: concentration at 8 h

The molecule C[C@@H](Oc1c(N)ncc2c(C3=CCN(C(N)=O)CC3)coc12)c1c(Cl)ccc(F)c1Cl showed concentration at 8 h equal to > 3000 nM

* * *

testedSystem: Aurora kinase B (Homo sapiens, UniProt Q96GD4)
Sequence (Q96GD4 whole entry): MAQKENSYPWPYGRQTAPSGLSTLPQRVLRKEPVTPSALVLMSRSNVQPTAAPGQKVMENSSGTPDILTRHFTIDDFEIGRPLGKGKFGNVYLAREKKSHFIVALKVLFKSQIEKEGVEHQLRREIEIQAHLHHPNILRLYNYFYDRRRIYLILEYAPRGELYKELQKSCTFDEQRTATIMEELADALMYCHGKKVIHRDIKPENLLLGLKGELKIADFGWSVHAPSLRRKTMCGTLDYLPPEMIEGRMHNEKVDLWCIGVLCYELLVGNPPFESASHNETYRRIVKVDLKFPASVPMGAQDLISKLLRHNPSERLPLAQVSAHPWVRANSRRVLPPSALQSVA
testDescription: Inhibition of aurora-B in human HT-29 cells assessed as phosphorylation of histone H3 at Ser10
Assay type: cell-based
measure: pIC50
Please keep in mind that pIC50 is minus log10 of the molar concentration; only the number is needed.

The molecule C[C@@H](Oc1c(N)ncc2c(C3=CCN(C(N)=O)CC3)coc12)c1c(Cl)ccc(F)c1Cl showed pIC50 equal to 6.00

* * *

Assign half-life to each entry below.
testDescription: Half life in CD1 mouse at 2 mg/kg, iv
Format: ADME, organism-based
Set-up: dose 2 mg/kg, route intravenous
testParameters: in vivo
The reply should be a number in min, with the unit left off.

The compound C[C@@H](Oc1c(N)ncc2c(-c3cnn(C4CCNCC4)c3)coc12)c1c(Cl)ccc(F)c1Cl showed half-life equal to 36

The compound C[C@@H](Oc1c(N)ncc2c(C3=CCN(C(N)=O)CC3)coc12)c1c(Cl)ccc(F)c1Cl showed half-life equal to 174

* * *

testDescription: Half life in Sprague-Dawley rat at 2 mg/kg, iv
Format: ADME, organism-based
Design: dose 2 mg/kg, route intravenous
testParameters: in vivo
measure: half-life (h)
The reply should be a number in h, with the unit left off.

The molecule C[C@@H](Oc1c(N)ncc2c(C3=CCN(C(N)=O)CC3)coc12)c1c(Cl)ccc(F)c1Cl showed half-life equal to 2

* * *

testDescription: Solubility of the compound at pH 4.5
Type: physicochemical
testParameters: buffer
measure: solubility

The compound C[C@@H](Oc1c(N)ncc2c(C3=CCN(C(N)=O)CC3)coc12)c1c(Cl)ccc(F)c1Cl showed solubility equal to 11 µM

* * *

testedSystem: Vascular endothelial growth factor receptor 2 (Homo sapiens, UniProt P35968)
Sequence (P35968 whole entry): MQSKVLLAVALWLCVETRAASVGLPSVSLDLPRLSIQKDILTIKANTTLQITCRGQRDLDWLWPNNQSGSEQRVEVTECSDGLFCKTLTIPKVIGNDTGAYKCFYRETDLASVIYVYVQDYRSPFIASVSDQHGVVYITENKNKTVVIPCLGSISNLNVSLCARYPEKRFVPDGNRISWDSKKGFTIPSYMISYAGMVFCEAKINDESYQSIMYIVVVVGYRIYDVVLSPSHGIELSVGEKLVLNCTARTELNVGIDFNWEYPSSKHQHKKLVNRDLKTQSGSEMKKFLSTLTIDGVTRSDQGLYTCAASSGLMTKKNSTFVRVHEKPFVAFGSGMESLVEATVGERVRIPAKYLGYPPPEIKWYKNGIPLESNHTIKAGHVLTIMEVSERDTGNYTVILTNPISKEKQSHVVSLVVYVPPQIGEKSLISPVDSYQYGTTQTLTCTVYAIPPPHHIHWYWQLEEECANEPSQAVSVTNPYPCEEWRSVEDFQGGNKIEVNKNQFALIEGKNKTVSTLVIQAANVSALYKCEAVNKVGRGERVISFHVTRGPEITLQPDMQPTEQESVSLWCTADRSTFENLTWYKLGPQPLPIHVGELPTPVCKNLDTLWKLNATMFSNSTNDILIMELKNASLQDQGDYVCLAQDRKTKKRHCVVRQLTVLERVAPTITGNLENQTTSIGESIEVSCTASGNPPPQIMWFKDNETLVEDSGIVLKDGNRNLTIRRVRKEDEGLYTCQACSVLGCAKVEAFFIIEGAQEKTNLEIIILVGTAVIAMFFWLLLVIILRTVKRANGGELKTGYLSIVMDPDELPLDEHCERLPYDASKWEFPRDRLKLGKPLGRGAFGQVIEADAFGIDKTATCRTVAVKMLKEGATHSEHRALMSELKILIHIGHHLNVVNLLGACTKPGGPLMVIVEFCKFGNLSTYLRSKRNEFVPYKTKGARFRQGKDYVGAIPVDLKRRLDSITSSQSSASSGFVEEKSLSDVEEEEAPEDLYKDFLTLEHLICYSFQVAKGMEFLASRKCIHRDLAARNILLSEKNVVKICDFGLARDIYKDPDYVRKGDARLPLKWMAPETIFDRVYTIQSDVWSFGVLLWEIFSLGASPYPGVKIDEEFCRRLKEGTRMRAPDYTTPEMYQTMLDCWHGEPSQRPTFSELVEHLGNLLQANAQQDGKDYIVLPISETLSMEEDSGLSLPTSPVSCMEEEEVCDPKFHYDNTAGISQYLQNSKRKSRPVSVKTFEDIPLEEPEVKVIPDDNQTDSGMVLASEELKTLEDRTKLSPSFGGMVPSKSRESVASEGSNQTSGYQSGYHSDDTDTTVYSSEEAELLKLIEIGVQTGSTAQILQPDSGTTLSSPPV
testDescription: Inhibition of KDR (unknown origin) autophosphorylation
measure: IC50 (µM)
The reply should be a number in µM, with the unit left off.

The compound C[C@@H](Oc1c(N)ncc2c(C3=CCN(C(N)=O)CC3)coc12)c1c(Cl)ccc(F)c1Cl showed IC50 equal to 1.3

* * *

testedSystem: UniProt:Q9UM73
Sequence (Q9UM73 whole entry): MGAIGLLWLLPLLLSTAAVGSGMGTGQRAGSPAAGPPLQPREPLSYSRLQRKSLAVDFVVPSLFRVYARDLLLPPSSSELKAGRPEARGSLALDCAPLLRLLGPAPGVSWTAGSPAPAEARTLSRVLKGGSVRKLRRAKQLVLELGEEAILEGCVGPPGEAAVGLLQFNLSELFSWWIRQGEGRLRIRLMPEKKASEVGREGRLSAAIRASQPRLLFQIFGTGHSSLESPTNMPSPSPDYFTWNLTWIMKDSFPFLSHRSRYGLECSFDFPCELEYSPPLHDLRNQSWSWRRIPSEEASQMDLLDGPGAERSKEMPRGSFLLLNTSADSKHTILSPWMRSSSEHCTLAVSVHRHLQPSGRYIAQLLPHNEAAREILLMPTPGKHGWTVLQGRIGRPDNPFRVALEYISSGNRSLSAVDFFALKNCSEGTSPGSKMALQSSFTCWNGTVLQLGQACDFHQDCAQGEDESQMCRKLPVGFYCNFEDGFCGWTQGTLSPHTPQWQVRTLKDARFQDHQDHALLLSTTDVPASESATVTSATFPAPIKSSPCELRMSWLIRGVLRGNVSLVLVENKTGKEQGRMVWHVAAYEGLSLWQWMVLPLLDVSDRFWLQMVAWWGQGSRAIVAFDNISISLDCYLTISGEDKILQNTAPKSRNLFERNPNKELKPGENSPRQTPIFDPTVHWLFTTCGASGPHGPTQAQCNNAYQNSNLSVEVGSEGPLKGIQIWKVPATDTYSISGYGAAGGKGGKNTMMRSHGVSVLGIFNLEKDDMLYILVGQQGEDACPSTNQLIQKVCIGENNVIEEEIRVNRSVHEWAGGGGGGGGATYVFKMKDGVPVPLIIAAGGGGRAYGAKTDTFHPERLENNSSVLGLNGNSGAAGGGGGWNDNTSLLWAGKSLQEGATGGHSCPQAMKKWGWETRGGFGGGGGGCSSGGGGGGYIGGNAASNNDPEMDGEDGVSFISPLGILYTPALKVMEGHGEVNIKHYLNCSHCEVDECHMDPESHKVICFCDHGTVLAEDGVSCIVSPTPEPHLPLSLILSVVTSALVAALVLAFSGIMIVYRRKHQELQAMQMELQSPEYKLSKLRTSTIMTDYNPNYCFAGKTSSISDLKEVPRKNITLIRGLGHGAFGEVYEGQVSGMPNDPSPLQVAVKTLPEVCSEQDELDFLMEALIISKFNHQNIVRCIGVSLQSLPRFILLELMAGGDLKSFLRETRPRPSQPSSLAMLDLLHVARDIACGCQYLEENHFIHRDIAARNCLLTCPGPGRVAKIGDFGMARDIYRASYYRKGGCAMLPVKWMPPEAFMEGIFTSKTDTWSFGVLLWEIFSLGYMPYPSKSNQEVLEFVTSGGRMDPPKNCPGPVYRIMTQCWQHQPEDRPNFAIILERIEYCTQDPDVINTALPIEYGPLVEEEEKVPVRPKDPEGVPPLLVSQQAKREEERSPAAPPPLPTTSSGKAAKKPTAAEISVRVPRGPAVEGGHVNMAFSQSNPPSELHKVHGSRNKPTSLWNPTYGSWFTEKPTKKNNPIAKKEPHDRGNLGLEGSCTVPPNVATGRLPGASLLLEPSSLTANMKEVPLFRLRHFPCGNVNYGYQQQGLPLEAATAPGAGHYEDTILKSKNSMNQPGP
testDescription: Inhibition of ALK autophosphorylation in human Karpas-299 cells
Format: cell-based
measure: IC50 (nM)
The reply should be a number in nM, with the unit left off.

The compound C[C@@H](Oc1c(N)ncc2c(C3=CCN(C(N)=O)CC3)coc12)c1c(Cl)ccc(F)c1Cl showed IC50 equal to 500

* * *

testDescription: Oral bioavailability in Sprague-Dawley rat at 20 mg/kg
Type: ADME, organism-based
testParameters: in vivo
measure: bioavailability (%)
The reply should be a number in %, with the unit left off.

The compound C[C@@H](Oc1c(N)ncc2c(C3=CCN(C(N)=O)CC3)coc12)c1c(Cl)ccc(F)c1Cl showed bioavailability equal to 72
